Target: T1, linked peptide (HIV-1, strain  (synthetic …))
T1 construct: source: synthetic peptide (Genscript)
Test: BLI; Octet Red; Mabs captured on anti-human IgG Fc biosensors (10 µg/mL), peptides or ES2 as analyte in solution, two-fold dilutions 500 nM to 7.81 nM, PBS pH 7.4, 0.2% Tween 20, 60 s association and 60 s dissociation, no lipid; Langmuir 1:1 fit; also used for the alanine-substituted MPER peptides
Settings: both partners purified
Listing of recorded koff by entry.

# binder, koff (s⁻¹)
rows = [
    ("2F5 CDRH3 length-altered variant e4 (antibody, V domains shown) VH: RITLKESGPPLVKPTQTLTLTCSFSGFSLSDFGVGVGWIRQPPGKALEWLAIIYSDDDKRYSPSLNTRLTITKDTSKNQVVLVMTRVSPVDTATYFCAHRRGPTTGGLFGVGGPIARGPVNAMDVWGQGITVTISS VL: ALQLTQSPSSLSASVGDRITITCRASQGVTSALAWYRQKPGSPPQLLIYDASSLESGVPSRFSGSGSGTEFTLTISTLRPEDFATYYCQQLHFYPHTFGGGTRVDVR", 0.0104),
    ("2F5 CDRH3 length-altered variant r2 (antibody, V domains shown) VH: RITLKESGPPLVKPTQTLTLTCSFSGFSLSDFGVGVGWIRQPPGKALEWLAIIYSDDDKRYSPSLNTRLTITKDTSKNQVVLVMTRVSPVDTATYFCAHRRGPTLFGVIARGPVNAMDVWGQGITVTISS VL: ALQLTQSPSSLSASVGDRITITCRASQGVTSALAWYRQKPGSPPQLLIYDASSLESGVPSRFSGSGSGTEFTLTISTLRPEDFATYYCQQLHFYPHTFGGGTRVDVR", 0.0085),
    ("2F5 CDRH3 length-altered variant r6 (antibody, V domains shown) VH: RITLKESGPPLVKPTQTLTLTCSFSGFSLSDFGVGVGWIRQPPGKALEWLAIIYSDDDKRYSPSLNTRLTITKDTSKNQVVLVMTRVSPVDTATYFCAHRRGLFGVRGPVNAMDVWGQGITVTISS VL: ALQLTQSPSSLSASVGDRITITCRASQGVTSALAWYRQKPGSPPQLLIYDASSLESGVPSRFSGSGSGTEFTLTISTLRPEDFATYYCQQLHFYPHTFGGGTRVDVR", 0.0237),
]
